This collection of values is drawn from paper doi:10.1101/2025.06.05.658000.

Target: HLA-DR (DRA1*01:01 / DRB1*14:54), soluble knob-into-hole Fc heterodimer (human)
Assay: ELISA
No end group written: not given here.
endpoint: Kd (nM)
Report only the number, with the unit nM understood.

## Input Which measured Kd value corresponds to KPVSKMRMATPLLMQALPM (also: biotin-labeled) [biotin-labeled human Class II-associated Invariant Chain Peptide (Bio-CLIP)] ?
## Output 3.35
